tested on: A2780 (Ovarian Carcinoma); assay: Bliss excess, mean over the matrix (fraction); higher = more synergy;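 further: after 72 h of two-drug dosing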
property-measured: Bliss excess

# compound, assay-target, property-measured, observed
records = [
    ("COc1nnc2ccc(N3CCC(c4ccc(OCCN5CCN(C)C(=O)[C@H]5C)cc4)CC3)nn12 [AZD5153] + Cc1c2c(nn1C)CSCc1cc(n(C)n1)CSc1cc(c3ccccc3c1)OCCCc1c(C(=O)O)n(C)c3c-2c(Cl)ccc13 [AZD5991] (first compound max 1 µM, 7x7, partner max 1 µM)", "A2780 (Ovarian Carcinoma)", "Bliss excess", -0.0324),
    ("COc1nnc2ccc(N3CCC(c4ccc(OCCN5CCN(C)C(=O)[C@H]5C)cc4)CC3)nn12 [AZD5153] + CCN(CCO)CCCOc1ccc2c(Nc3cc(CC(=O)Nc4cccc(F)c4)[nH]n3)ncnc2c1 [AZD2811] (first compound max 1 µM, 7x7, partner max 1 µM)", "A2780 (Ovarian Carcinoma)", "Bliss excess", -0.0295),
    ("CN(CCO)CC[C@H](CSc1ccccc1)Nc1ccc(S(=O)(=O)NC(=O)c2ccc(N3CCC([C@@H](O)c4ccccc4-c4ccc(Cl)cc4)CC3)cc2)cc1S(=O)(=O)C(F)(F)F [AZD4320] + CC(=O)O[C@H]1C(=O)[C@@]2(C)[C@H]([C@H](OC(=O)c3ccccc3)[C@]3(O)C[C@H](OC(=O)[C@H](O)[C@@H](NC(=O)c4ccccc4)c4ccccc4)C(C)=C1C3(C)C)[C@]1(OC(C)=O)CO[C@@H]1C[C@@H]2O [Paclitaxel] (first compound max 1 µM, 7x7, partner max 3 µM)", "A2780 (Ovarian Carcinoma)", "Bliss excess", -0.0362),
    ("Cc1nc(Nc2ncc(C(=O)Nc3c(C)cccc3Cl)s2)cc(N2CCN(CCO)CC2)n1 [Dasatinib] + CC(=O)Nc1cccc(-n2c(=O)n(C3CC3)c(=O)c3c(Nc4ccc(I)cc4F)n(C)c(=O)c(C)c32)c1 [Trametinib] (first compound max 2 µM, 7x7, partner max 1 µM)", "A2780 (Ovarian Carcinoma)", "Bliss excess", 0.029),
    ("Cc1c2c(nn1C)CSCc1cc(n(C)n1)CSc1cc(c3ccccc3c1)OCCCc1c(C(=O)O)n(C)c3c-2c(Cl)ccc13 [AZD5991] + C[C@@H]1COCCN1C2=NC(=NC(=C2)C3(CC3)[S@](=N)(=O)C)C4=C5C=CNC5=NC=C4 [AZD6738] (first compound max 1 µM, 7x7, partner max 10 µM)", "A2780 (Ovarian Carcinoma)", "Bliss excess", -0.0032),
    ("CN(CCO)CC[C@H](CSc1ccccc1)Nc1ccc(S(=O)(=O)NC(=O)c2ccc(N3CCC([C@@H](O)c4ccccc4-c4ccc(Cl)cc4)CC3)cc2)cc1S(=O)(=O)C(F)(F)F [AZD4320] + C=CCn1c(=O)c2cnc(Nc3ccc(N4CCN(C)CC4)cc3)nc2n1-c1cccc(C(C)(C)O)n1 [AZD1775] (first compound max 1 µM, partner max 1 µM)", "A2780 (Ovarian Carcinoma)", "Bliss excess", 0.0284),
]
